# assay_target: Human BCL-XL protein (N-terminal HiBiT tagged BCL-XL in HT1080 cells) (Homo sapiens, UniProt Q07817)
# Construct: expressed in transfected cells; host or cells: HT-1080 (ATCC CCL-121), stably transduced with lentivirus pLV-UBC-N-HiBiT-BCL-XL-PGK-puro and selected with puromycin
# Sequence (Q07817 whole entry): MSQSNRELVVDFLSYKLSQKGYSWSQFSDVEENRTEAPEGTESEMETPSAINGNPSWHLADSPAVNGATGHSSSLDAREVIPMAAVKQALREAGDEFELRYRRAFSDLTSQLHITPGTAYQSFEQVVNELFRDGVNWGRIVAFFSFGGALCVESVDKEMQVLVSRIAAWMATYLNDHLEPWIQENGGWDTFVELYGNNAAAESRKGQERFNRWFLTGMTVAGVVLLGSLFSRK
# method_notes: HiBiT based degradation assay
# Type: cell-based
# recorded_conditions: BCL-XL degradation; HT1080 cells expressing HiBiT-BCL-XL; 24 h; read-out: EC50 (24 h)
Recorded measurements of DC50, one per entry

Data request, read-out DC50, for Cc1c(OCCC[C@H]2CCN(CC(=O)Nc3ccc4c(C5CCC(=O)NC5=O)nn(C)c4c3)CC2(F)F)cccc1-c1ccc(N2CCc3cccc(C(=O)Nc4nc5ccccc5s4)c3C2)nc1C(=O)O (stereo partly drawn) [Compound 193b]
0.1 to 1 µM

Next: Cc1c(OCCCN2CCN(CC(=O)Nc3ccc4c(C5CCC(=O)NC5=O)nn(C)c4c3)[C@@H](C(F)(F)F)C2)cccc1-c1ccc(N2CCc3cccc(C(=O)Nc4nc5ccccc5s4)c3C2)nc1C(=O)O (stereo partly drawn) [Compound 187b]
< 0.1 µM

Next: Cc1c(O[C@H]2CC[C@H](CCCCN3CC[C@H](c4cccc5c(C6CCC(=O)NC6=O)nn(C)c45)C3)CC2)cccc1-c1ccc(N2CCc3cccc(C(=O)Nc4nc5ccccc5s4)c3C2)nc1C(=O)O (single isomer, unassigned) [Compound 321a]
< 0.1 µM

Next: Cc1c(OCC(F)(F)CN2C[C@@H](C)N(CC(=O)Nc3ccc4c(C5CCC(=O)NC5=O)nn(C)c4c3)[C@@H](C)C2)cccc1-c1ccc(N2CCc3cccc(C(=O)Nc4nc5ccccc5s4)c3C2)nc1C(=O)O (stereo partly drawn) [Compound 177a]
0.1 to 1 µM

Next: Cc1c(Oc2ccc(CCCCN3CCN(c4ccc5c(C6CCC(=O)NC6=O)nn(C)c5c4)CC3)cc2)cccc1-c1ccc(N2CCc3cccc(C(=O)Nc4nc5ccccc5s4)c3C2)nc1C(=O)O (stereo not drawn)
< 0.1 µM

Next: Cc1c(O[C@H]2CC[C@H](CC(F)(F)C(=O)N3CCN(c4cccc5c(C6CCC(=O)NC6=O)nn(C)c45)CC3)CC2)cccc1-c1ccc(N2CCc3cccc(C(=O)Nc4nc5ccccc5s4)c3C2)nc1C(=O)O (stereo partly drawn) [Compound 171a]
0.1 to 1 µM

Next: Cc1c(O[C@H]2CC[C@H](CCCN3CCN(c4ccc5c(C6CCC(=O)NC6=O)nn(C)c5c4)[C@@H](C)C3)CC2)cccc1-c1ccc(N2CCc3cccc(C(=O)Nc4nc5ccccc5s4)c3C2)nc1C(=O)O (stereo partly drawn) [Compound 278b]
< 0.1 µM

Next: Cc1c(OCCC[C@H]2CCN(CC(=O)Nc3ccc4c(C5CCC(=O)NC5=O)nn(C)c4c3)[C@H](C)C2)cccc1-c1ccc(N2CCc3cccc(C(=O)Nc4nc5ccccc5s4)c3C2)nc1C(=O)O (stereo partly drawn) [Compound 343b]
< 0.1 µM

Next: Cc1c(OCCC[C@H]2CCN(CC(=O)Nc3cccc4c(C5CCC(=O)NC5=O)nn(C)c34)CC2(F)F)cccc1-c1ccc(N2CCc3cccc(C(=O)Nc4nc5ccccc5s4)c3C2)nc1C(=O)O (stereo partly drawn) [Compound 197a]
0.1 to 1 µM

Next: Cc1c(OC[C@H](C)CC2CCN(CC(=O)Nc3ccc4c(C5CCC(=O)NC5=O)nn(C)c4c3)CC2)cccc1-c1ccc(N2CCc3cccc(C(=O)Nc4nc5ccccc5s4)c3C2)nc1C(=O)O (single isomer, unassigned) [Compound 263a]
< 0.1 µM

New cases:
Data request, read-out DC50, for Cc1c(OCCCC2CCN(CCN3CCN(c4cccc5c(C6CCC(=O)NC6=O)nn(C)c45)CC3)CC2)cccc1-c1ccc(N2CCc3cccc(C(=O)Nc4nc5ccccc5s4)c3C2)nc1C(=O)O (stereo not drawn)
< 0.1 µM

Next: Cn1nc(C2CCC(=O)NC2=O)c2ccc(N3CCN(CCC[C@H]4CC[C@H](Oc5cccc(-c6ccc(N7CCc8cccc(C(=O)Nc9nc%10ccccc%10s9)c8C7)nc6C(=O)O)c5)CC4)CC3)cc21 (stereo partly drawn) [Compound 330a]
< 0.1 µM

Next: Cc1c(O[C@H]2CC[C@H](CCCCN3CCN(c4ccc5c(C6CCC(=O)NC6=O)nn(C)c5c4)CC3)CC2)cccc1-c1ccc(N2CCc3cccc(C(=O)Nc4nc5ccccc5s4)c3C2)nc1C(=O)O (stereo partly drawn) [Compound 161a]
< 0.1 µM

Next: Cc1c(OCCN2CCN(CC3CCN(c4cccc5c(C6CCC(=O)NC6=O)nn(C)c45)CC3)CC2)cccc1-c1ccc(N2CCc3cccc(C(=O)Nc4nc5ccccc5s4)c3C2)nc1C(=O)O (stereo not drawn)
< 0.1 µM

Next: Cc1c(OCCC2CCN(CC(=O)Nc3ccc4c(C5CCC(=O)NC5=O)nn(C)c4c3)CC2)cccc1-c1ccc(N2CCc3cccc(C(=O)Nc4nc5ccccc5s4)c3C2)nc1C(=O)O (stereo not drawn)
< 0.1 µM

Next: Cc1c(OCCCN2CCC(CC(=O)Nc3cccc4c(C5CCC(=O)NC5=O)nn(C)c34)CC2)cccc1-c1ccc(N2CCc3cccc(C(=O)Nc4nc5ccccc5s4)c3C2)nc1C(=O)O (stereo not drawn)
< 0.1 µM

Next: Cc1c(OCCC[C@@H]2CCN(CC(=O)Nc3ccc4c(C5CCC(=O)NC5=O)nn(C)c4c3)[C@H](C)C2)cccc1-c1ccc(N2CCc3cccc(C(=O)Nc4nc5ccccc5s4)c3C2)nc1C(=O)O (stereo partly drawn) [Compound 343a]
< 0.1 µM

Next: Cc1cc(CCCCC2CCN(CC(=O)Nc3ccc4c(C5CCC(=O)NC5=O)nn(C)c4c3)CC2)ccc1-c1ccc(N2CCc3cccc(C(=O)Nc4nc5ccccc5s4)c3C2)nc1C(=O)O (stereo not drawn)
< 0.1 µM

---

# assay_target: Human BCL-XL protein (N-terminal HiBiT tagged BCL-XL in HT1080 cells) (Homo sapiens, UniProt Q07817)
# Construct: expressed in transfected cells; host or cells: HT-1080 (ATCC CCL-121), stably transduced with lentivirus pLV-UBC-N-HiBiT-BCL-XL-PGK-puro and selected with puromycin
# method_notes: HiBiT based degradation assay
# Format: cell-based
# recorded_conditions: BCL-XL degradation normalized with DMSO control; HT1080 cells expressing HiBiT-BCL-XL; 24 h
test_readout: Ymin (24 h)

Please review the following examples before continuing.
Data request, read-out Ymin (24 h), for Cc1c(O[C@H]2CC[C@@H](CCCN3CCN(c4cccc5c(C6CCC(=O)NC6=O)nn(C)c45)CC3)CC2)cccc1-c1ccc(N2CCc3cccc(C(=O)Nc4nc5ccccc5s4)c3C2)nc1C(=O)O (stereo partly shown) [Compound 147b]
B (50% ≤ Ymin < 70%)

Next: Cc1c(O[C@@H]2CCC3(CCN(CC(=O)Nc4ccc5c(C6CCC(=O)NC6=O)nn(C)c5c4)CC3)C2)cccc1-c1ccc(N2CCc3cccc(C(=O)Nc4nc5ccccc5s4)c3C2)nc1C(=O)O (single isomer, unassigned) [Compound 268b]
A (Ymin < 50%)

Next: Cc1c(OCCCCC2CCN(CC3CCN(c4cccc5c(C6CCC(=O)NC6=O)nn(C)c45)CC3)CC2)cccc1-c1ccc(N2CCc3cccc(C(=O)Nc4nc5ccccc5s4)c3C2)nc1C(=O)O (stereo not shown)
A (Ymin < 50%)

Next: Cc1c(Oc2ccc(CCCCN3CCN(c4ccc5c(C6CCC(=O)NC6=O)nn(C)c5c4)CC3)cc2)cccc1-c1ccc(N2CCc3cccc(C(=O)Nc4nc5ccccc5s4)c3C2)nc1C(=O)O (stereo not shown)
A (Ymin < 50%)

Next: Cc1c(OCC[C@H](C)C2CCN(CC(=O)Nc3ccc4c(C5CCC(=O)NC5=O)nn(C)c4c3)CC2)cccc1-c1ccc(N2CCc3cccc(C(=O)Nc4nc5ccccc5s4)c3C2)nc1C(=O)O (stereo partly shown) [Compound 167b]
B (50% ≤ Ymin < 70%)

Next: Cc1cc(OCC2CC3(CCN(CC(=O)Nc4ccc5c(C6CCC(=O)NC6=O)nn(C)c5c4)CC3)C2)ccc1-c1ccc(N2CCc3cccc(C(=O)Nc4nc5ccccc5s4)c3C2)nc1C(=O)O (stereo not shown)
A (Ymin < 50%)

Next: Cc1c(O[C@H]2CC[C@H](CCCC(C)(C)N3CCN(c4ccc5c(C6CCC(=O)NC6=O)nn(C)c5c4)CC3)CC2)cccc1-c1ccc(N2CCc3cccc(C(=O)Nc4nc5ccccc5s4)c3C2)nc1C(=O)O (stereo partly shown) [Compound 350a]
A (Ymin < 50%)

Next: Cc1c(OCCCC2CCN(CCN3CCC(c4ccc5c(C6CCC(=O)NC6=O)nn(C)c5c4)CC3)CC2)cccc1-c1ccc(N2CCc3cccc(C(=O)Nc4nc5ccccc5s4)c3C2)nc1C(=O)O (stereo not shown)
A (Ymin < 50%)

New cases:
Data request, read-out Ymin (24 h), for Cc1c(OCCC[C@H]2CCCN(CC(=O)Nc3ccc4c(C5CCC(=O)NC5=O)nn(C)c4c3)C2)cccc1-c1ccc(N2CCc3cccc(C(=O)Nc4nc5ccccc5s4)c3C2)nc1C(=O)O (stereo partly shown) [Compound 207b]
A (Ymin < 50%)

Next: Cc1c(OCCCN2C[C@@H](C)N(CC(=O)Nc3ccc4c(C5CCC(=O)NC5=O)nn(C)c4c3)[C@@H](C)C2)cccc1-c1ccc(N2CCc3cccc(C(=O)Nc4nc5ccccc5s4)c3C2)nc1C(=O)O (stereo partly shown) [Compound 116a]
A (Ymin < 50%)
